Parameter growth: see the listing below.
Tested on: Ruminococcus gnavus DSM 108212
Assay: growth (OD595) fold change vs plate DMSO controls (fold change (ratio)); higher = more growth
Details: incubation time: 27 h, anaerobic, 37 °C
Where a name gives a salt, the structure may show the parent alone.
// response body must contain only the number

Example entries and their recorded answers appear below.
- COMPOUND: "O=C(O)c1cc(=O)[nH]c(=O)[nH]1 [Orotic acid] (20 µM)"
  NUMBER: 1.22
- COMPOUND: "Nc1ccc(S(=O)(=O)Nc2cnc3ccccc3n2)cc1 [Sulfaquinoxaline sodium salt] (20 µM)"
  NUMBER: 0.994
- COMPOUND: "Oc1c(Cl)cc(Cl)c2cccnc12 [Chloroxine] (20 µM)"
  NUMBER: 0.369
- COMPOUND: "CNCCC=C1c2ccccc2C=Cc2ccccc21 [Norcyclobenzaprine] (20 µM)"
  NUMBER: 1.09
- COMPOUND: "COc1ccc([C@@H]2Sc3ccccc3N(CCN(C)C)C(=O)[C@@H]2OC(C)=O)cc1 [Diltiazem hydrochloride] (20 µM)"
  NUMBER: 1.01
- COMPOUND: "CN1CCN2c3ncccc3Cc3ccccc3C2C1 (stereo unspecified) [Mirtazapine] (20 µM)"
  NUMBER: 1.11

-- ask Provide growth value for the following compound: COc1c(O)cc2c(c1O)[C@@H]1O[C@H](CO)[C@@H](O)[C@H](O)[C@H]1OC2=O [Bergenin] (20 µM)
-- reply 1.05

-- ask Provide growth value for the following compound: O=C(CCCN1CCC(O)(c2ccc(Br)cc2)CC1)c1ccc(F)cc1 [Bromperidol] (20 µM)
-- reply 0.813

-- ask Provide growth value for the following compound: CCOc1ccccc1OC(c1ccccc1)C1CNCCO1 (stereo unspecified) [Reboxetine mesylate] (20 µM)
-- reply 1.08
